# target desc: T1, wild-type CNTFR-HIS (human, UniProt P26992 23-342)
# T1 construct: also called wtCNTFR-HIS; HIS tagged CNTFR; not shown: HIS tag
# T1 sequence: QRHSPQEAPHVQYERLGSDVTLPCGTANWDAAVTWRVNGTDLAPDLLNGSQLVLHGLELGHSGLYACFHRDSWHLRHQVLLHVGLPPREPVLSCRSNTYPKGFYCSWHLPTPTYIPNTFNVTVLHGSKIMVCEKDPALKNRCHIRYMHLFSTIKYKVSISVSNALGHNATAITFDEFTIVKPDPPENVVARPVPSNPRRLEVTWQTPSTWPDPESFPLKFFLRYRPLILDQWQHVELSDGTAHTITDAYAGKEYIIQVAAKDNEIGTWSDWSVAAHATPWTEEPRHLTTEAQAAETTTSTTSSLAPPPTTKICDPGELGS
# test details: flow cytometry, yeast-displayed CLCF1 construct, soluble CNTFR-HIS titrated, anti-HIS Hilyte Fluor 488 detection
observable: EC50 (read off the curve)

Example cases with answers are listed next.
Request: What does the data say about its EC50 (read off the curve)? Entry: yeast-displayed CLCF1 variant Q96R (ligand, not shown: large carriers; small tags and cut ends) LNRTGDPGPGPSIQKTYDLTRYLEHQLRSLAGTYLNYLGPPFNEPDFNPPRLGAETLPRATVDLEVWRSLNDKLRLTQNYEAYSHLLCYLRGLNRRAATAELRRSLAHFCTSLQGLLGSIAGVMAALGYPLPQPLPGTEPTWTPGPAHSDFLQKMDDFWLLKELQTWLWRSAKDFNRLKKKMQPPAAAVTLHLGAHGF
Result: ~6 nM

Request: Which EC50 (read off the curve) reading was recorded for the binder v2 (ligand) CLCF1 variant displayed on yeast as Aga2p fusion with c-myc tag: LNRTGDPGPGPSIQKTYDLTRYLEHQLRSLAGTYLNYLGPPFNEPDFNPPRLGAETLPRATVDLEVWRSLNDKLRLTQNYEAYSHFLCYLRGLNRRAATAELRRSLAHFCTSLQGLLGSIAGVMAALGYPLPQPLPGTEPTWTPGPAHSDFLQKMDDFWLLKELQTWLWRSAKDFNRLKKKMQPPAAAVTLHLGAHGF ?
Result: ~4 nM

Request: // query EC50 (read off the curve) value for entry yeast-displayed FRR-CLCF1 (L86F, Q96R, H148R) (ligand, not shown: large carriers; small tags and cut ends, also called the variant with all three mutations) LNRTGDPGPGPSIQKTYDLTRYLEHQLRSLAGTYLNYLGPPFNEPDFNPPRLGAETLPRATVDLEVWRSLNDKLRLTQNYEAYSHFLCYLRGLNRRAATAELRRSLAHFCTSLQGLLGSIAGVMAALGYPLPQPLPGTEPTWTPGPARSDFLQKMDDFWLLKELQTWLWRSAKDFNRLKKKMQPPAAAVTLHLGAHGF
Result: ~1 nM

Now look at this one.
Request: EC50 (read off the curve) lookup needed for v3 (ligand) CLCF1 variant displayed on yeast as Aga2p fusion with c-myc tag: LNRTGDPGPGPSIQKTYDLTRYLEHQLRSLAGTYLNYLGPPFNEPDFNPPRLGAETLPRATVDLEVWRSLNDKLRLTQNYEAYSHLLCYLRGLNRRAATAELRRSLAHFCTSLQGLLGSIAGVMAALGYPLPQPLPGTEPTWTPGPARSDFLQKMDDFWLLKELQTWLWRSAKDFNRLKKKMQPPAAAVTLHLGAHGF , thanks.
Result: ~3 nM
